experiment: Cytotoxicity against HEK293 cells assessed as reduction in cell viability measured after 72 hrs by resazurin dye based fluorescence assay; format: toxicity; settings: human
Parameter: IC50 at 72 h (nM)
Response body: numeric value in nM, unit text excluded.

`COc1ccc(C[C@H](N)C(=O)N[C@H]2[C@@H](O)[C@H](n3cnc4c(N(C)C)ncnc43)O[C@@H]2CO)cc1` has a reported IC50 at 72 h of 837

###

test: Selectivity index, ratio of IC50 for cytotoxicity against HEK293 cells to IC50 for antiplasmodial activity against ring stage drug-sensitive Plasmodium falciparum 3D7; assay type: toxicity, cell-based; conditions: human, HEK293 cells versus ring stage Plasmodium falciparum 3D7; read-out: Ratio IC50
Parameter: selectivity ratio
The reply should be a number, written without any unit.

Worked examples follow.
C[C@H]1[C@H](OC(=O)CCC(=O)O)O[C@@H]2O[C@@]3(C)CC[C@H]4[C@H](C)CC[C@@H]1[C@@]24OO3 [ARTESUNATE]
1750
CCc1nc(N)nc(N)c1-c1ccc(Cl)cc1 [PYRIMETHAMINE]
588

Read the next record carefully.
COc1ccc(C[C@H](N)C(=O)N[C@H]2[C@@H](O)[C@H](n3cnc4c(N(C)C)ncnc43)O[C@@H]2CO)cc1 [PUROMYCIN] has a reported selectivity ratio of 9.2
